tested on: U2OS; test: Multiplex assay against U2OS; format: toxicity, cell-based; conditions: human, 24 h, 1 µM, compound concentration 1 uM, replicate 2
Mark 1 for reported Population Mitotic Cells (%) of 60% or greater; mark -1 for anything smaller.

These recorded examples may help you get a feel for the data.
Compound	Answer label
NC(=O)Nc1cc(-c2cccc(F)c2)sc1C(=O)N[C@H]1CCCNC1 [AZD-7762]	1
CN1CCN(c2ccc(OC(F)(F)F)c(Nc3ncc4c(n3)-c3c(c(C(N)=O)nn3CCO)CC4)c2)CC1 [ONVANSERTIB]	-1
CN(C)C(=O)/C(C#N)=C/c1ccc(-c2nc3cnc4[nH]ccc4c3n2C2CCCCC2)o1	-1
Cl.N#Cc1ccc2[nH]cc(CCCCN3CCN(c4ccc5oc(C(N)=O)cc5c4)CC3)c2c1 [VILAZODONE HYDROCHLORIDE]	-1
O=C1NCN(c2ccccc2)C12CCN(CCCOc1ccc(F)cc1)CC2 [SPIRAMIDE]	1
C[C@@H](NCCCc1cccc(C(F)(F)F)c1)c1cccc2ccccc12.Cl [CINACALCET HYDROCHLORIDE]	1

Given the entry COc1ncc(-c2ccc3nccc(-c4ccnnc4)c3c2)cc1NS(=O)(=O)c1ccc(F)cc1F [OMIPALISIB] , answer whether its Population Mitotic Cells (%) meets or surpasses 60%.
1

Given the entry `Cc1[nH]c(/C=C2\C(=O)Nc3ccc(S(=O)(=O)N(C)c4cccc(Cl)c4)cc32)c(C)c1C(=O)N1CCN(C)CC1` , answer whether its Population Mitotic Cells (%) meets or surpasses 60%.
-1

Given the entry `CNc1nc(NCc2ccc(NS(C)(=O)=O)cc2Cl)cc(-c2ccccn2)n1` , answer whether its Population Mitotic Cells (%) meets or surpasses 60%.
1

Given the entry Cn1cc(C2=C(c3cn(C4CCN(Cc5ccccn5)CC4)c4ccccc34)C(=O)NC2=O)c2ccccc21 [ENZASTAURIN] , answer whether its Population Mitotic Cells (%) meets or surpasses 60%.
-1

Given the entry CN1CCC[C@@H]1CCO[C@](C)(c1ccccc1)c1ccc(Cl)cc1.O=C(O)/C=C/C(=O)O [CLEMASTINE FUMARATE] , answer whether its Population Mitotic Cells (%) meets or surpasses 60%.
1

Given the entry c1cn2cc(-c3ccc4cn[nH]c4c3)nc(Nc3ccc(N4CCOCC4)cc3)c2n1 [ENTOSPLETINIB] , answer whether its Population Mitotic Cells (%) meets or surpasses 60%.
1

Given the entry `Cc1cc(C)cc(-c2cnc3cc(Cl)c(-c4cccc(O)c4)cc3c2OCCCN)c1` , answer whether its Population Mitotic Cells (%) meets or surpasses 60%.
-1

Given the entry CN(C)CC#Cc1ccc(OCCCc2sc(N3CCc4cccc(C(=O)Nc5nc6ccccc6s5)c4C3)nc2C(=O)O)c(F)c1 [A-1155463] , answer whether its Population Mitotic Cells (%) meets or surpasses 60%.
-1

====

test system: HEK-293T; experiment: Multiplex assay against HEK293T; assay type: toxicity, cell-based; conditions: human, 48 h, 10 µM, compound concentration 10 uM, replicate 1
Assay endpoint: Population Membrane Permeable-Phenotype (%)
Reply with just the number (in %).

Some entries whose results are on file:
Molecule	Unit name	Data value
CN(C)CC#Cc1ccc(OCCCc2sc(N3CCc4cccc(C(=O)Nc5nc6ccccc6s5)c4C3)nc2C(=O)O)c(F)c1	%	30
CNCc1ccccc1-c1csc([C@H](C)Nc2nc(C)nc3cc(OC)c(OC)cc23)c1	%	0
COc1cc2nccc(Oc3ccc(NC(=O)Nc4cc(C)on4)c(Cl)c3)c2cc1OC.O	%	2
Cl.N#Cc1ccc2[nH]cc(CCCCN3CCN(c4ccc5oc(C(N)=O)cc5c4)CC3)c2c1 [VILAZODONE HYDROCHLORIDE]	%	0
CC(C)(O)CNc1ncc(-c2ccnc(Nc3ccnc(Cl)c3)n2)c(CC2CC2)n1	%	25

Reported HEK-293T Population Membrane Permeable-Phenotype (%) for item O=C1NCN(c2ccccc2)C12CCN(CCCOc1ccc(F)cc1)CC2 [SPIRAMIDE] was 0

Reported HEK-293T Population Membrane Permeable-Phenotype (%) for item `Cc1[nH]c(/C=C2\C(=O)Nc3ccc(S(=O)(=O)N(C)c4cccc(Cl)c4)cc32)c(C)c1C(=O)N1CCN(C)CC1` was 5

Reported HEK-293T Population Membrane Permeable-Phenotype (%) for item CC(C)NCC(O)COc1ccc(CCOCC2CC2)cc1.Cl (stereo not drawn) [BETAXOLOL HYDROCHLORIDE] was 0
